Tested on: COLO 205 colon
protocolText: NCI tumour cell line growth inhibition, 48 h
assayMetric: TGI

Below, 8 molecules whose answers are already recorded.
>  <molecule>
O=C1c2ccccc2C(=O)c2c1c(=O)c(=O)c1ccccc1c(=O)n2Cc1ccccc1

>  <assayMetric>
TGI

>  <result>
> 100 µM

$$$$
>  <molecule>
O=C(ON=c1c2ccccc2ccc2ccccc12)c1ccccc1

>  <assayMetric>
TGI

>  <result>
35.7 µM

$$$$
>  <molecule>
COc1ccc(/C=C/c2nsc(/C=C/c3ccc(OC)cc3)n2)cc1

>  <assayMetric>
TGI

>  <result>
> 100 µM

$$$$
>  <molecule>
NCCc1c[nH]c2ccc(OC(=O)C(=O)O)cc12

>  <assayMetric>
TGI

>  <result>
> 100 µM

$$$$
>  <molecule>
COc1ccc(S(=O)Cc2cc(OC)c(OC)c(OC)c2)cc1 (centres undefined)

>  <assayMetric>
TGI

>  <result>
> 100 µM

$$$$
>  <molecule>
CCOC(=O)C1(Cc2ccc3c(c2)CCC3)Cc2cc3c(cc2C1=O)CCC3 (centres undefined)

>  <assayMetric>
TGI

>  <result>
> 100 µM

$$$$
>  <molecule>
Cn1c2c([N+](=O)[O-])cccc2c(=O)c2c(O)cc3c(c21)C=CC(C)(C)O3

>  <assayMetric>
TGI

>  <result>
> 100 µM

$$$$
>  <molecule>
CN(C)CCN=C1c2ccccc2-c2c(=O)n(CCN(C)C)c(O)c3cccc1c23

>  <assayMetric>
TGI

>  <result>
0.27 µM

$$$$

Need TGI for each of these molecules.
1. COC(=O)Cc1cccc2c1CCC2=O
2. COc1ccc(C23OCC(Cc4cc(OC)c(OC)cc42)C3COC(C)=O)cc1OC (centres undefined)
3. N#C/C(C(=O)Nc1ccccc1)=C(/N)N1CCCC1

Result:
> 100 µM
> 100 µM
> 100 µM

Record TGI for all entries; do not skip any.
1. C=CCn1c(SCC(=O)Nc2ccc(C(=O)/C=C/c3cc(OC)c(OC)c(OC)c3)cc2)nnc1-c1ccc(Cl)cc1
2. Cc1c(S(=O)(=O)/N=C(\NN)Nc2ccc(Cl)cc2)sc2ccc(Cl)cc12
3. O=[N+]([O-])c1ccc(C(Br)c2ccc([N+](=O)[O-])cc2)cc1
4. NCCCCCCn1c(-c2ccc(Br)cc2)csc1=Nc1ccccc1
5. O=C(CN=C(CN(c1ccccc1)c1ccccc1)Oc1c(Cl)cc(Cl)cc1Cl)N1c2ccccc2Sc2ccccc21
6. CCCCC(=O)OC[n+]1cccc(-c2c(COC(=O)NC(C)C)c(COC(=O)NC(C)C)c3n2CCC3)c1

Result:
1: 67.3 µM; 2: 33.4 µM; 3: 24 µM; 4: 3.18 µM; 5: > 100 µM; 6: > 100 µM

Required: TGI, one value per molecule below.
1. O=C1c2ccccc2-c2ccccc2C(=O)C1(Br)Br
2. CC1(C)CCC2(CC1)N[C@@H](C(=O)N[C@@H]1CC[C@@H](C(N)=O)OC1)[C@H](c1ccnc(Cl)c1F)[C@]21C(=O)Nc2cc(Cl)ccc21
3. Cc1cc(NS(=O)(=O)c2ccc(Nc3c4ccccc4nc4c(C(=O)Nc5ccc(S(N)(=O)=O)cc5)cccc34)cc2)no1
4. COC(=O)C1(NC(=O)C(CC(=O)OCc2ccccc2)NC(=O)OCc2ccccc2)CCCCCCC1 (centres undefined)
5. O=c1[nH][nH]c(=O)n1Cc1cccc(Cn2c(=O)[nH][nH]c2=O)c1

Result:
1: 20.7 µM; 2: 5.39 µM; 3: > 100 µM; 4: 82.7 µM; 5: > 100 µM

Could you tell me TGI for each of these molecules? They are listed below.
1. CC(/C=N/N(C)C1=NCCCN1)=N/N(C)C1=NCCCN1
2. O=C(C=P(c1ccccc1)(c1ccccc1)c1ccccc1)c1ccc(-c2cccc([N+](=O)[O-])c2)cc1

Result:
1. > 100 µM
2. 3.31 µM
